Tested on: MOLT-4 leukemia
Test: NCI tumour cell line growth inhibition, 48 h

compound: COC(=O)CCC(C)[C@H]1CCC2C3CC[C@@H]4CC5(CC[C@]4(C)C3C[C@H](OC(C)=O)[C@@]21C)OOC1(CCCCC1)OO5 (stereo not given in full)
system-under-test: MOLT-4 leukemia
TGI: > 100 µM
//
compound: CCOC(=O)CNC(=O)c1[nH]cnc1/N=N/N(C)C
system-under-test: MOLT-4 leukemia
TGI: > 100 µM
//
compound: CN(C)CCNC(=O)Nc1ccc(N(C)c2ccnc(Nc3ccc(CS(C)(=O)=O)cc3)n2)cc1
system-under-test: MOLT-4 leukemia
TGI: > 25 µM
//
compound: CCC(Oc1ccc(OC)c2c1C(=O)CCC2)C(=O)O (stereo not given)
system-under-test: MOLT-4 leukemia
TGI: > 100 µM
//
compound: COc1cccc2c(=O)oc(-c3ccccc3C)nc12
system-under-test: MOLT-4 leukemia
TGI: 68 µM
